Values were extracted from paper PMC5540273.

%Inh values by entry
Tested on: MYO3A
Conditions: concentration: 1 μM, replicates: in singlicate; n = 1;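 further: KINOMEscan kinase panel screen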
Write it as a number; the unit % goes unstated.

Examples with their reported %Inh follow.
NC(=O)c1sc(-n2cnc3ccccc32)cc1OCc1ccccc1F 3
Cn1ccc2ncnc(Nc3ccc(Oc4cccc(Cl)c4)c(Cl)c3)c21 0
O=C(Nc1n[nH]c2nc(-c3ccco3)c(Br)cc12)c1ccc(CN2CCCC2)cc1.O=C(O)[C@H](O)[C@@H](O)C(=O)O 0
Nc1nc(-c2cccnc2)c(-c2ccnc3ccccc23)s1 0
FC(F)(F)c1ccc(-c2nn3ncccc3c2-c2ccnc(Nc3cccc(C(F)(F)F)c3)n2)cc1 0

Query molecule follows.
# input Look at this molecule and give its reported %Inh. "Cc1cccc(-c2nc(Nc3ccc4[nH]nnc4c3)c3ccccc3n2)n1"
# output 0

---

System: CAMK2G
Conditions: concentration: 1 μM, replicates: in singlicate; n = 1
resultType: %Inh (%)
Write it as a number; the unit % goes unstated.

Cn1ccc2ncnc(Nc3ccc(Oc4cccc(Cl)c4)c(Cl)c3)c21 8
Clc1ccc(-c2cc(-c3c[nH]nc3-c3ccccn3)ccn2)cc1 8

# input Look at this compound and give its reported %Inh. "COc1ccc(NC(=O)c2ccc(-c3cc(-c4nnc(C)o4)ccc3C)cc2)cc1"
# output 8

---

System: MRCKB
Construct: gene CDC42BPB
Details: concentration: 1 μM, replicates: in singlicate; n = 1
resultType: %Inh (%)
Write it as a number; the unit % goes unstated.

compound	unitsOfMeasure	%Inh
Clc1cc(Nc2ncnc3cc[nH]c23)ccc1OCc1ccccn1	%	8
Cn1cc(-c2ccc3c(c2)CCN3C(=O)Cc2cccc(C(F)(F)F)c2)c2c(N)ncnc21	%	0
COc1ccc(Nc2nccc(N3CCC(NC(=O)Nc4ccc5c(c4)OCO5)C3)n2)cc1 (stereo not shown)	%	0

# input Look at this compound and give its reported %Inh. "COc1cc2c(Nc3cccc(NC(=O)c4ccccc4)c3)ncnc2cc1OCCCN1CCOCC1"
# output 4

# input Moving on to the next compound: "CN1CCC(n2cnc(-c3ccc(F)cc3)c2-c2ccnc(NC3CCNCC3)n2)CC1"
# output 0

# input Moving on to the next compound: "CC(C)(C)c1ccc(-n2cnc3c(N)ncnc32)cc1"
# output 3

# input Moving on to the next compound: "Fc1cccc(COc2ccc(Nc3ncnc4sc(-c5ccc[nH]5)cc34)cc2Cl)c1"
# output 6

# input Moving on to the next compound: "COc1ccc(NC(=O)c2ccc(-c3cc(-c4nnc(C)o4)ccc3C)cc2)cc1"
# output 3

# input Moving on to the next compound: "Cl.Cn1ccc(-c2cccc(Nc3ccnc4cc(-c5nccs5)ccc34)c2)n1"
# output 0

---

Test system: SgK110
Conditions: concentration: 1 μM, replicates: in singlicate; n = 1
resultType: %Inh (%)
Write it as a number; the unit % goes unstated.

Examples with their reported %Inh follow.
molecule	resultType	unitsOfMeasure	dataValue
CCCc1ccc(S(=O)(=O)NC2CCN(c3ccnc(Nc4ccc(OC)cc4)n3)C2)cc1 (stereo not drawn)	%Inh	%	0
C[C@H]1CC[C@@H](C(=O)Nc2ccccc2)CN1c1cc(-c2ccc3c(N)n[nH]c3c2)nc(N)n1	%Inh	%	0

# input SgK110 / %Inh / "Cn1ccc2ncnc(Oc3ccc(NC(=O)Nc4cccnc4)c(Cl)c3)c21" : value?
# output 49

---

System: GCN2(Kin.Dom.2,S808G)
Construct: gene EIF2AK4
Conditions: concentration: 1 μM, replicates: in singlicate; n = 1
%Inh values by entry
Please provide the amount together with its unit, number first.

compound	%Inh
Nc1nccc2scc(-c3ccc4c(c3)CCN4C(=O)Cc3cc(F)ccc3F)c12 [GSK2587663]	13%
Nc1nc(-c2ccc3c(N)n[nH]c3c2)cc(N2CCC[C@@H](C(=O)Nc3ccccc3)C2)n1.O=C(O)C(F)(F)F.O=C(O)C(F)(F)F [GSK2288359]	0%

# input GCN2(Kin.Dom.2,S808G) / %Inh / "N#Cc1ccc(Oc2ccc(Nc3ncnc4cc[nH]c34)cc2Cl)cc1" : value?
# output 10%

---

System: SNRK
Conditions: concentration: 1 μM, replicates: in singlicate; n = 1
resultType: %Inh (%)
Write it as a number; the unit % goes unstated.

Examples with their reported %Inh follow.
C[C@@H]1CCN(C(=O)CO)C[C@@H]1N(C)c1ncnc2[nH]ccc12 3
Cc1cccc(-c2nc(Nc3ccc4[nH]nnc4c3)c3ccccc3n2)n1 0
CNc1nccc(-c2c(-c3ccc(F)cc3)ncn2CCCN2CCOCC2)n1 18
CS(=O)(=O)CCNCc1ccc(-c2ccc3ncnc(Nc4ccc(OCc5ccccc5)c(Cl)c4)c3c2)o1.Cl 0
Nc1nc(-c2ccc3c(N)n[nH]c3c2)cc(N2CCCCC2)n1 0

Query compound follows.
# input Look at this compound and give its reported %Inh. "N#Cc1ccc(Oc2ccc(Nc3ncnc4cc[nH]c34)cc2Cl)cc1"
# output 38

---

System: KIT
Conditions: concentration: 1 μM, replicates: in singlicate; n = 1
%Inh values by entry
Write it as a number; the unit % goes unstated.

Examples with their reported %Inh follow.
COc1ccc(NC(=O)c2ccc(-c3cc(-c4nnc(C)o4)ccc3C)cc2)cc1 64
Fc1ccc(-c2ncn(CCCNCc3ccccc3)c2-c2ccncc2)cc1 19
CC(C)N1CCC(n2cnc(-c3ccc(F)cc3)c2-c2ccnc(N)n2)CC1 0
FC(F)(F)c1ccc(-c2cc(-c3c[nH]nc3-c3ccccn3)ccn2)cc1 26

# input KIT / %Inh / "CCn1c(-c2ccncc2)nc2cnccc21" : value?
# output 0

# input Moving on to the next compound: "Oc1ccc2ncnc(Nc3ccc(OCc4ccccc4)cc3)c2c1"
# output 48

# input Moving on to the next compound: "O=C(Nc1n[nH]c2nc(-c3ccco3)c(Br)cc12)c1ccc(CN2CCCC2)cc1.O=C(O)[C@H](O)[C@@H](O)C(=O)O"
# output 99.2

# input Moving on to the next compound: "Cc1ccc(C)c(NC(=O)NCCNc2ccnc(Nc3ccc(F)cc3)n2)c1"
# output 0

---

%Inh values by entry
System: WNK2
Conditions: concentration: 1 μM, replicates: in singlicate; n = 1
Write it as a number; the unit % goes unstated.

Examples with their reported %Inh follow.
Fc1ccc(-c2ncn(CCCNCc3ccccc3)c2-c2ccncc2)cc1 0
CC(=O)Nc1n[nH]c2ncc(-c3ccccc3)cc12 0
Cc1cc(N2CCC(NS(=O)(=O)c3ccc(F)cc3)CC2)nc(Nc2cccc(C#N)c2)n1.O=C(O)C(F)(F)F 13

# input Look at this molecule and give its reported %Inh. "FC(F)(F)c1ccc(-c2nn3ncccc3c2-c2ccnc(Nc3cccc(C(F)(F)F)c3)n2)cc1"
# output 0

---

Tested on: RPS6KA4(Kin.Dom.1-N-terminal)
Conditions: concentration: 1 μM, replicates: in singlicate; n = 1
resultType: %Inh
Please provide the amount together with its unit, number first.

Examples with their reported %Inh follow.
COc1cc2c(Nc3cccc(NC(=O)c4ccccc4)c3)ncnc2cc1OCCCN1CCOCC1 9%
CS(=O)(=O)CCNCc1ccc(-c2ccc3ncnc(Nc4ccc(OCc5ccccc5)c(Cl)c4)c3c2)o1.Cl 32%
Fc1ccc(Nc2nccc(-c3c(-c4ccc(Cl)cc4)nn4ncccc34)n2)cc1F 25%
Nc1n[nH]c2nnc(-c3ccccc3)cc12 4%
CCc1nc(-c2cccc(N(C)S(=O)(=O)c3ccccc3)c2)c(-c2ccnc(Nc3ccc(N4CCN(C(C)=O)CC4)nc3)n2)s1 0%

# input Look at this molecule and give its reported %Inh. "Cl.Fc1ccccc1COc1ccc(Nc2ncnc3ccc(-c4nnc(C(F)(F)F)o4)cc23)cc1Cl"
# output 10%

# input Moving on to the next molecule: "Cl.Cl.c1ccc(-c2cc3ccncc3cc2OC2CCNCC2)cc1"
# output 11%

# input Moving on to the next molecule: "Nc1nc(-c2ccc3c(N)n[nH]c3c2)cc(N2CCC[C@@H](C(=O)Nc3ccccc3)C2)n1.O=C(O)C(F)(F)F.O=C(O)C(F)(F)F"
# output 0%

# input Moving on to the next molecule: "CCC(CC)(CC)n1cnc2c(N)ncnc21"
# output 24%

# input Moving on to the next molecule: "COc1ccc(NC(=O)c2ccc(-c3cc(-c4nnc(C)o4)ccc3C)cc2)cc1"
# output 0%

---

Test system: TRKA
Construct: gene NTRK1
Details: concentration: 1 μM, replicates: in singlicate; n = 1
%Inh values by entry

Examples with their reported %Inh follow.
compound	%Inh
CS(=O)(=O)CCNCc1nc(-c2ccc3ncnc(Nc4ccc(OCc5cccc(F)c5)c(Cl)c4)c3c2)cs1.Cl [GW583340]	0%
CC(C)N1CCC(n2cnc(-c3ccc(F)cc3)c2-c2ccnc(N)n2)CC1 [SB-223132]	0%
Cl.Cn1ccc(-c2cccc(Nc3ccnc4cc(-c5nccs5)ccc34)c2)n1 [GW525701]	0%
Fc1cccc(COc2ccc(Nc3ncnc4nn5ccccc5c34)cc2Cl)c1 [GW689066]	0%
O=C(Nc1ccccc1)Nc1ccc(Oc2ccc3nccn3n2)cc1	0%
Cn1cc(-c2ccc3c(c2)CCN3C(=O)Cc2cccc(C(F)(F)F)c2)c2c(N)ncnc21 [GSK2606414]	35%

# input Look at this compound and give its reported %Inh. FC(F)(F)c1ccc(-c2cc(-c3c[nH]nc3-c3ccccn3)ccn2)cc1 [GW599550]
# output 0%

# input Moving on to the next compound: NC(=O)c1sc(-n2cnc3ccccc32)cc1OCc1ccccc1F [GSK1024306]
# output 51%

# input Moving on to the next compound: "OCCOCCn1ccc2ncnc(Nc3ccc(Oc4cccc(Cl)c4)c(Cl)c3)c21"
# output 0%
